Data origin, for the record: PubChem BioAssay (NCI)

Assay: NCI Yeast Anticancer Drug Screen. Data for the bub3 strain (AID 167)
Conditions: S. cerevisiae bub3 mutant strain, at 11.0 µM, hits give high values
The panel holds about 79,000 compounds, 15% with a hit somewhere; the sample as a whole holds those more often. Activity calls are given as the source filed them. Cut-off read from the data, not from the text of the source: active = growth inhibition above about 70%; inactive = the rest.
experimental.readout: growth inhibition

molecule	growth inhibition
COc1ccc(OC)c(/C=C/[N+](=O)[O-])c1	13% (inactive)
OC(c1ccc(Br)cc1)C(Cl)(Cl)Cl (stereo not drawn)	3% (inactive)
C[N+](C)(C)CC1CCCC(C[N+](C)(C)C)C1=O (stereo not drawn)	4% (inactive)

Items follow; give growth inhibition for each.
1. Cn1cnc(N)c1C(=N)[Se]
2. CS(=O)(=O)OCCN(CCOS(C)(=O)=O)c1ccc(C=O)cc1
3. C=C[C@H]1CN2CC[C@H]1C[C@@H]2[C@@H](O)c1ccnc2ccccc12
4. COc1cc2ccccc2c2cc([N+](=O)[O-])oc12
5. O=C(O)C1C2c3ccccc3C(c3ccccc32)C1C(=O)O (stereo not drawn)
6. O=C(NNC(=O)OCC(Cl)(Cl)Cl)OCC(Cl)(Cl)Cl
7. Br[Se]c1ccccn1

Reply text:
1. 80% (active)
2. 10% (inactive)
3. 1% (inactive)
4. -1% (inactive)
5. -5% (inactive)
6. -6% (inactive)
7. 93% (active)

Items follow; give growth inhibition for each.
1. COc1cc(O)c2c(O)c3c(c4c2c1[C@]1(C4)C(C)=CCCC1(C)C)[C@H](O)[C@@]1(O)CC(=O)C(C(N)=O)=C(O)[C@@]1(O)C3=O
2. COC1C(O)C(C)OC(OC2C(Oc3cccc4c(O)c5c(=O)oc6ccc(C)c7c(=O)oc(c34)c5c67)OC(C)C(O)C2O)C1O (stereo not drawn)

Reply text:
98% (active)
-1% (inactive)

Items follow; give growth inhibition for each.
1. O=[N+]([O-])c1cc(S(=O)(=O)F)ccc1Cl
2. CCCCCCCCCCCCCCCCP(=O)(O)OP(=O)(O)OCC1OC(n2ccc(N)nc2=O)C(O)C1O (stereo not drawn)

Reply text:
1% (inactive)
-4% (inactive)

Items follow; give growth inhibition for each.
1. CCOC(=O)C1C2c3ccccc3C(c3ccccc32)C1C(=O)OCC (stereo not drawn)
2. COc1cccc2c1C(=O)c1c(O)c3c(c(O)c1C2=O)C[C@@](O)(C(C)=O)C[C@@H]3OC1CC(N)C(OC2CC(O)C(O)C(C)O2)C(C)O1 (stereo partly drawn)
3. O=C1C=CC(=O)C1(Br)Br
4. Oc1cccc2nc3ccccc3nc12
5. CCN(CCCl)c1cc(CN(C)C)cc(NC(=O)c2ccc(C(=O)Nc3cc(CN(C)C)cc(N(CC)CCCl)c3)cc2)c1
6. O=C(O)CCCOc1cc(Cl)c(Cl)cc1Cl

Reply text:
1: 11% (inactive); 2: -31% (inactive); 3: 18% (inactive); 4: -16% (inactive); 5: -14% (inactive); 6: -2% (inactive)

---

Assay: NCI Yeast Anticancer Drug Screen. Data for the mgt1 strain (AID 153)
Conditions: S. cerevisiae mgt1 mutant growth inhibition; at 100.0 µM
About 79,000 compounds went through this panel and 15% of them were active in at least one assay; those are over-represented in the sample as a whole. Calls of active or inactive are those of the source. Rule as the data show it: active = growth inhibition above about 70%; inactive = the rest.
Field 'call' accepts active, inactive

compound	category.label
Nc1nc(N)c2c(Cl)c(CNc3ccc(C(=O)NC(CC(=O)O)C(=O)O)cc3)ccc2n1 (centres undefined)	inactive
OC(c1ccc(Br)cc1)C(Cl)(Cl)Cl (centres undefined)	active
O=C(O)CCCOc1cc(Cl)c(Cl)cc1Cl	active
CN(C)CCSC1=Nc2ccc(Cl)cc2C(c2ccccc2Cl)=NC1	inactive

Turning to the following compound.
Inquiry: What outcome does the record of this test show for CC1CC(Br)C(=O)O1 (centres undefined) ?
Reply text: active

---

For each record, write down the corresponding growth inhibition.
Experiment: NCI Yeast Anticancer Drug Screen. Data for the cln2 rad14 strain (AID 165);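 note: 0% = growth equal to vehicle treated cultures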
Conditions: S. cerevisiae cln2 rad14 strain, at 5.0 µM (retest, dose inferred, filed as 0.5), hits give high values
The panel holds about 79,000 compounds, 15% with a hit somewhere; the sample as a whole holds those more often.
Numbers only, in %.

A selection of reference data follows.
molecular.string	result.number
CSc1ccc2c(c1)c(CCN)c(C)n2Cc1ccccc1Cl	-31
c1c(N2CCOCC2)ssc1=[N+]1CCOCC1	-1
O=[N+]([O-])c1ccc(-n2nc3ccc4c(no[n+]4[O-])c3[n+]2[O-])c([N+](=O)[O-])c1	44

Items follow; give growth inhibition for each.
1. CCCCCCCCCCCC[As](=O)(O)O
2. O=C1C(=O)c2cccc3cccc1c23
3. CCCCCOC(=O)CCl

Reply text:
[-3, 6, 1]

Reported growth inhibition for `CCN(CC)CCBr` was -2

---

For each record, write down the corresponding growth inhibition.
Experiment: NCI Yeast Anticancer Drug Screen. Data for the rad50 strain (AID 155);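 note: 0% = growth of vehicle-only cultures of the same strain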
Conditions: S. cerevisiae rad50 strain growth inhibition; at 5.0 µM (retest, dose inferred, filed as 0.5); hits give high values
About 79,000 compounds went through this panel and 15% of them were active in at least one assay; those are over-represented in the sample as a whole.
One number for each entry, in %.

A selection of reference data follows.
compound	units.text	growth inhibition
Cc1ccc2ccccc2c1NC1=NCCO1	%	24
O=C(O)C1C2c3cccc4cccc(c34)C12 (configuration not stated)	%	-139
O=C1C=C(Cl)C(=O)C=C1Cl	%	17
C/C(=N\NC(N)=O)C(CN1CCOCC1)C(c1ccccc1)c1c(O)c2ccccc2oc1=O (configuration not stated)	%	89
C[C@]12CCC3[C@@H](CC[C@@H]4c5nonc5CC[C@]34C)C1CCC2=O (some centres not stated)	%	27

Items follow; give growth inhibition for each.
1. N#C[S-].[Nd+3].c1cnc2c(c1)ccc1cccnc12.c1cnc2c(c1)ccc1cccnc12.c1cnc2c(c1)ccc1cccnc12
2. N#CC(C#N)=Cc1ccc([N+](=O)[O-])s1
3. C[N+](CCCl)(CCCl)Cc1cccc2cccc([N+](=O)[O-])c12
4. COC(=O)C(Cl)(Br)CCl (configuration not stated)
5. CC1(C)N([O-])[N+](=O)C1(C)Br (configuration not stated)
6. C[C@]12CC/C(=N\OC(=O)Nc3ccccc3)C=C1CC[C@@H]1C2CC[C@@]2(C)C1CC[C@@H]2OC(=O)Nc1ccccc1 (some centres not stated)

Reply text:
[91, -83, 37, 13, 23, -7]

Items follow; give growth inhibition for each.
1. Oc1cc[c]([Hg][Cl])cc1
2. CN(CCc1ccc(Br)cc1)CCN1CCCCC1
3. C[C@]12Cc3conc3C(O)=C1CC[C@@H]1C2CC[C@@]2(C)C1CC[C@@H]2O (some centres not stated)

Reply text:
1: 99; 2: 9; 3: 2

Items follow; give growth inhibition for each.
1. C/C(=N\N)C(CN1CCCCC1)C(c1ccccc1)c1c(O)c2ccccc2oc1=O (configuration not stated)
2. O=C(COc1ccc(Cl)c(Cl)c1)N(Cc1ccccc1)Cc1ccc[n+](Cc2ccc(S(=O)(=O)F)cc2)c1
3. CCCN(CCC)c1c([N+](=O)[O-])cc(S(N)(=O)=O)cc1[N+](=O)[O-]
4. COC1NC(=O)NC(=O)C1=[N+]=[N-] (configuration not stated)
5. [Se]C(=NCc1ccccc1)NCc1ccccc1

Reply text:
[3, 4, -5, -152, 29]

Items follow; give growth inhibition for each.
1. CC1=C(O)C(=O)C=C2C1=CC=C1[C@@]2(C)CCC2(C)[C@@H]3C[C@@H](C)C(=O)C[C@]3(C)CC[C@]12C (some centres not stated)
2. O=C(c1ccccc1)C1C(c2ccccc2[N+](=O)[O-])N1C1CCCCC1 (configuration not stated)
3. CCC1(C2=CCCCC2)C(=O)NC(=S)NC1=O

Reply text:
1: 4; 2: -2; 3: -101

---

Assay: NCI Yeast Anticancer Drug Screen. Data for the rad50EPP+ strain (AID 151);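 note: 0% = growth of vehicle-treated control cultures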
Details: S. cerevisiae rad50 mutant strain, at 33.0 µM
Method: Growth inhibition of yeast strains with defined genetic alterations is measured as a screen for potential anti-cancer activity. Selected strains with alterations in DNA damage repair or cell cycle control were exposed to compounds and growth inhibition was measured relative to vehicle treated controls. The strain used in this assay is rad50EPP+
This is part of a sample that, as a whole, favours compounds with a hit. Of some 79,000 tested, about 15% had one in any assay. Active and inactive are the calls of the source. Cut-off read from the data, not from the text of the source: active = growth inhibition above about 70%; inactive = the rest.
Field 'call' accepts True = active, False = inactive

compound	category.label
CC1=C(N2CC2)C(=O)c2ccccc2C1=O	True
Oc1c(Br)cc(Br)cc1Br	False

Inquiry: What outcome does the record of this test show for `N#Cc1cc(N(CCCl)CCCl)c([N+](=O)[O-])cc1[N+](=O)[O-]` ?
Reply text: False

---

Assay: NCI Yeast Anticancer Drug Screen. Data for the cln2 rad14 strain (AID 165);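 note: 0% = growth equal to vehicle treated cultures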
Settings: S. cerevisiae cln2 rad14 strain, at 50.0 µM (retest, dose inferred, filed as 5.0)
This is part of a sample that, as a whole, favours compounds with a hit. Of some 79,000 tested, about 15% had one in any assay. Calls of active or inactive are those of the source. Cut-off read from the data, not from the text of the source: active = growth inhibition above about 70%; inactive = the rest.
Field 'call' accepts active, inactive

Examples from the recorded data:
compound	category.label
O=C1[O][Hg][c]2cccc3cccc1c23	active
NCC(O)c1cccc(O)c1 (stereo unspecified)	inactive
O=P1(Oc2ccccc2)C(c2ccccc2)C(c2ccccc2)=NN1c1ccccc1 (stereo unspecified)	inactive
S=C(SSC(=S)N1CCCCC1)N1CCCCC1	active

Inquiry: What outcome does the record of this test show for `C[n+]1c(/C=C/c2ccc(O)c(O)c2)[se]c2ccccc21` ?
Reply text: inactive

Inquiry: What outcome does the record of this test show for `Oc1ccc2nc3ccccc3nc2c1` ?
Reply text: inactive

Inquiry: What outcome does the record of this test show for `[Br][Cd][Br].c1ccc([PH+](c2ccccc2)c2ccccc2)cc1.c1ccc([PH+](c2ccccc2)c2ccccc2)cc1` ?
Reply text: active

Inquiry: What outcome does the record of this test show for `CCCN1CN(c2ccccc2)C2(CCN(CCCC(=O)c3ccc(F)cc3)CC2)C1=O` ?
Reply text: inactive

Inquiry: What outcome does the record of this test show for O=C(Nc1ccccc1)OC(C[N+](=O)[O-])C(Cl)(Cl)Cl (stereo unspecified) ?
Reply text: active

Inquiry: What outcome does the record of this test show for `COc1ccc(C2N(Cc3ccc(N(CCCl)CCCl)cc3C)CCCN2Cc2ccc(N(CCCl)CCCl)cc2C)cc1` ?
Reply text: active

Inquiry: What outcome does the record of this test show for `[N-]=[N+]=NS(=O)(=O)c1cccc([N+](=O)[O-])c1` ?
Reply text: active
